- SYSTEM: UniProt P16234
- ASSAY EXPLANATION: PDGFRα kinase enzyme assay (Promega PDGFRα Kinase Enzyme System, ADP-Glo)
- Format: biochemical
- ASSAY SETUP: 11-point dose response, 10,000 nM to 0.169 nM; 150 uM ATP; BLQ = below limit of quantitation; read-out: IC50 Values on PDGFRα Kinase Inhibition, IC50
VALUE KIND: IC50 (nM)
One number for each entry, in nM.

Some compounds with recorded IC50:
{"CHEMICAL STRUCTURE": "Cn1cc(-c2cc3ncc(N4CCN(C(=O)OC(C)(C)C)CC4)n3cn2)cn1", "IC50 [nM]": 948}
{"CHEMICAL STRUCTURE": "Cn1cc(-c2ccc3c(N4CCN(c5ncc(Cc6ccoc6)cn5)CC4)cnn3c2)cn1", "IC50 [nM]": 825}
{"CHEMICAL STRUCTURE": "Cc1cccc(Cc2cnc(N3CCN(c4cnn5cc(-c6cnn(C)c6)ccc45)CC3)nc2)c1", "IC50 [nM]": 249}

Provide measured IC50 value, entry: Cc1ccc(Cc2cnc(N3CCN(c4cnn5cc(-c6cnn(C)c6)ccc45)CC3)nc2)cc1
784

###

- SYSTEM: PDGFRα (Homo sapiens (Human))
- Sequence (P16234 24-1089): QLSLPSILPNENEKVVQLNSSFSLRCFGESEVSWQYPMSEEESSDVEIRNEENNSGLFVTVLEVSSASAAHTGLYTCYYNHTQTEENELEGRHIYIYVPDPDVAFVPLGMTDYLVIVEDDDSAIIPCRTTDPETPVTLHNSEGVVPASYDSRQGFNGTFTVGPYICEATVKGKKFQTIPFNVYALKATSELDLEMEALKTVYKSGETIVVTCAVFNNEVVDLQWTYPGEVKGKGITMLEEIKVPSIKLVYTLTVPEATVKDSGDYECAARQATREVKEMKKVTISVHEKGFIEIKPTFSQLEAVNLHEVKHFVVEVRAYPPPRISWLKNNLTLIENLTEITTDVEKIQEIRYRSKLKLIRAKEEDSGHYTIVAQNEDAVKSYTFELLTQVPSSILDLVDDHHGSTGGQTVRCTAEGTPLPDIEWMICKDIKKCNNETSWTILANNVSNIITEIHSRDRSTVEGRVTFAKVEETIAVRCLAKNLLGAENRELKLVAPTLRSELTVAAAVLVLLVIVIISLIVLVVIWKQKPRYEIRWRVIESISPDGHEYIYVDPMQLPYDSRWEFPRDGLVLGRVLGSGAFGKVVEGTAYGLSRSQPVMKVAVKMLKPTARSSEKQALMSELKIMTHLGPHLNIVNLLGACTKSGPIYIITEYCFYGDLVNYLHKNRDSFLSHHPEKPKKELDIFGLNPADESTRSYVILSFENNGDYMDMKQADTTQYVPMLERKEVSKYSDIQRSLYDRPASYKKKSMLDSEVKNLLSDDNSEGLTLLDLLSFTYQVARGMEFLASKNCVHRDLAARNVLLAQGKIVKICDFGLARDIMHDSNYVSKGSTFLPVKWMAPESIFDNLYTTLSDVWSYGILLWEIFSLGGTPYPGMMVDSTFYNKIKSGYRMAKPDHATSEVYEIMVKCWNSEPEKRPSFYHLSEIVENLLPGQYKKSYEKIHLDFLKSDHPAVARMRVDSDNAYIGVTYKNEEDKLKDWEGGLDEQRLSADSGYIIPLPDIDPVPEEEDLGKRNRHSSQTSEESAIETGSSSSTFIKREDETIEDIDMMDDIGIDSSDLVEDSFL
- ASSAY EXPLANATION: PDGFRα kinase enzyme assay (Promega PDGFRα Kinase Enzyme System, ADP-Glo)
- Format: biochemical
- ASSAY SETUP: 11-point dose response, 10,000 nM to 0.169 nM; 150 uM ATP; BLQ = below limit of quantitation; read-out: IC50 Values on PDGFRα Kinase Inhibition, IC50
Binary label based on IC50 with cut-off 1 µM: below gives 1, not below gives -1.

# count of solved cases: 5
{"COMPOUND": "Cn1cc(-c2ccc3c(N4CCN(c5ncc(C(O)c6ccccc6)cn5)CC4)cnn3c2)cn1 (centres unmarked) [Compound 71]", "CAT": 1}
{"COMPOUND": "Cn1cc(-c2ccc3c(N4CCN(c5ncc(C(O)C6CCOCC6)cn5)CC4)cnn3c2)cn1 (centres unmarked) [Compound 69]", "CAT": 1}
{"COMPOUND": "CC(C)OC(=O)N1CCN(c2cnn3cc(-c4cnn(C)c4)ccc23)CC1 [Compound 31]", "CAT": 1}
{"COMPOUND": "CN(CCCNc1cnn2cc(-c3cnn(C)c3)ccc12)c1ncc(Cc2ccccc2)cn1 [Compound 129]", "CAT": -1}
{"COMPOUND": "c1ccc(Cc2cnc(N3CCN(c4cnn5cc(-c6cn[nH]c6)ccc45)CC3)nc2)cc1 [Compound 255]", "CAT": -1}

API: the following record is the query input.
Threshold test, IC50 < 1 µM: Cn1cc(-c2ccc3c(N4CCN(c5ncc(Cc6nnco6)cn5)CC4)cnn3c2)cn1 [Compound 180]
-1

###

- System: Oligodendrocyte progenitor cells (OPCs)
- ASSAY EXPLANATION: In vitro OPC differentiation assay, GPR17 expression (immunocytochemistry)
- ASSAY SETUP: 3 μM (10× concentration, final 0.3 μM); 72 hours; fold change over vehicle
VALUE KIND: GPR17 Fold Induction (Over Vehicle; 3 μM)

{"COMPOUND": "Cn1cc(-c2ccc3c(N4CCN(C(=O)NCc5ccccc5)CC4)cnn3c2)cn1", "SYSTEM": "Oligodendrocyte progenitor cells (OPCs)", "RESULT": 3.97}
{"COMPOUND": "CC1CN(c2ncc(Cc3ccccc3)cn2)CCN1c1cnn2cc(-c3cnn(C)c3)ccc12 (stereo not shown)", "SYSTEM": "Oligodendrocyte progenitor cells (OPCs)", "RESULT": 5.85}
{"COMPOUND": "Cn1cc(-c2ccc3c(N4CCN(c5ncc(Sc6ccccc6)cn5)CC4)cnn3c2)cn1", "SYSTEM": "Oligodendrocyte progenitor cells (OPCs)", "RESULT": 6.03}

From here, focus on the item given below.
Provide measured GPR17 Fold Induction (Over Vehicle; 3 μM) value, entry: CC(C)(C)OC(=O)N1CCN(c2cnn3cc(-c4cnn(C5CCOCC5)c4)ccc23)CC1
9.32

###

Field: GPR17 Fold Induction (Over Vehicle; 5 μM). Provide a value for each of the compounds that follow.
- Test system: Oligodendrocyte progenitor cells (OPCs)
- ASSAY EXPLANATION: In vitro OPC differentiation assay, GPR17 expression (immunocytochemistry)
- ASSAY SETUP: primary rat OPCs, 72 hours, 5 μM (10x; final 0.5 μM per method), percent GPR17+ cells as fold change over vehicle
Counter-ions that a name gives are not always drawn.
Give bare numbers.

Some compounds with recorded GPR17 Fold Induction (Over Vehicle; 5 μM):
{"COMPOUND": "Cc1ccc(F)c(NC(=O)Nc2ccc(-c3cccc4[nH]nc(N)c34)cc2)c1 [Linifanib (ABT-869), linifanib, reference compound]", "NUMBER": 4.68}
{"COMPOUND": "CN1CCN(c2ccc(Nc3ncc4cc(C#N)c(=O)n(C5CCCC5)c4n3)cc2)CC1 [ON123300, reference compound]", "NUMBER": 6.72}
{"COMPOUND": "COc1ccc(-c2cncc(N[C@@H](C)c3cccc(NC(=O)c4cncc(C)c4)c3)n2)cc1OC [Seralutinib, seralutinib, reference compound]", "NUMBER": 3.53}

Required: GPR17 Fold Induction (Over Vehicle; 5 μM), one value per compound below.
1. COCCOc1ccc2c(c1)ncn2-c1ccc2cccc(N3CCC(N)CC3)c2n1 [CP-673451, reference compound]
2. COC(=O)[C@@]1(O)C[C@H]2O[C@]1(C)n1c3ccccc3c3c4c(c5c6ccccc6n2c5c31)C(=O)NC4 [Compound K252a, K252a, reference compound]
3. Nc1nc(Nc2ccc3c(c2)CC[C@@H](N2CCCC2)CC3)nn1-c1cc2c(nn1)-c1ccccc1CCC2 [Bemcentinib, bemcentinib, reference compound]
4. COc1ccc(N2Cc3cnc(Nc4ccc(F)cc4)nc3N([C@@H]3CC[C@@H](O)C3)C2=O)cc1 [RO4396686, reference compound]
5. CN(C[C@@H]1COCCO1)S(=O)(=O)Nc1ccc2ccc3ncc(-c4cnn(C)c4)cc3c(=O)c2c1 [MK 2461, reference compound]
6. CNC(=O)c1cc(COc2nnc(Nc3ccc(Cl)cc3)c3ccoc23)ccn1 [Telatinib, telatinib, reference compound]
7. COc1cc2c(Oc3ccc4[nH]c(C)cc4c3F)ccnc2cc1OCC1(N)CC1 [Anlotinib HCl, anlotinib HCl, reference compound]

2.94
2.53
2.99
3.61
7.10
3.90
6.58

Required: GPR17 Fold Induction (Over Vehicle; 5 μM), one value per compound below.
1. Cc1[nH]c(/C=C2\C(=O)Nc3ccc(F)cc32)c(C)c1C(=O)NC[C@H](O)CN1CCOCC1 [SU-14813, reference compound]
2. COc1cc2c(cc1OC)-c1[nH]nc(Nc3cccc(F)c3)c1C2 [JNJ-10198409, JNJ=10198409, reference compound]

1. 4.12
2. 3.87

###

- System: Oligodendrocyte progenitor cells (OPCs)
- ASSAY EXPLANATION: In vitro OPC differentiation assay, GPR17 expression (immunocytochemistry)
- ASSAY SETUP: 3 μM (10× concentration, final 0.3 μM); 72 hours; fold change over vehicle
VALUE KIND: GPR17 Fold Induction (Over Vehicle; 3 μM)
Give bare numbers.

{"MOLECULE": "Cn1cc(-c2cc3ncc(N4CCN(c5ncc(Cc6ccccc6)cn5)CC4)n3cn2)cn1 [Compound 113]", "SYSTEM": "Oligodendrocyte progenitor cells (OPCs)", "NUMBER": 0.57}
{"MOLECULE": "C[C@@H](OC(=O)N1CCCN(c2cnc3nc(-c4cnn(C)c4)ccn23)CC1)c1ccccc1 [Compound 117]", "SYSTEM": "Oligodendrocyte progenitor cells (OPCs)", "NUMBER": 1.39}
{"MOLECULE": "Cn1cc(-c2ccc3c(N4CCN(c5ncc(C(O)Cc6ccccc6)cn5)CC4)cnn3c2)cn1 (centres unmarked) [Compound 167]", "SYSTEM": "Oligodendrocyte progenitor cells (OPCs)", "NUMBER": 7.07}
{"MOLECULE": "Cn1cc(-c2ccc3c(N4CCC(C(=O)OCc5ccccc5)CC4)cnn3c2)cn1 [Compound 145]", "SYSTEM": "Oligodendrocyte progenitor cells (OPCs)", "NUMBER": 1.73}
{"MOLECULE": "Cn1cc(-c2ccc3c(NCCNc4ncc(Cc5ccccc5)cn4)cnn3c2)cn1 [Compound 123]", "SYSTEM": "Oligodendrocyte progenitor cells (OPCs)", "NUMBER": 1.34}

Required: GPR17 Fold Induction (Over Vehicle; 3 μM), one value per molecule below.
1. CN(CCCNc1ncc(Cc2ccccc2)cn1)c1cnn2cc(-c3cnn(C)c3)ccc12 [Compound 128]
2. Cn1cc(-c2ccc3c(N4CCN(S(=O)(=O)NCc5ccc(C(F)(F)F)cc5)CC4)cnn3c2)cn1 [Compound 294]
3. COc1cccc(-c2ccc3c(N4CCN(C(=O)OC(C)(C)C)CC4)cnn3c2)c1 [Compound 211]
4. CCC(CC)OC(=O)N1CCN(c2cnn3cc(-c4cnn(C)c4)ccc23)CC1 [Compound 16]

[1.45, 9.58, 2.54, 6.82]

Required: GPR17 Fold Induction (Over Vehicle; 3 μM), one value per molecule below.
1. Cn1cc(-c2ccc3c(N4CC5(CN(c6ncc(Cc7ccccc7)cn6)C5)C4)cnn3c2)cn1 [Compound 48]
2. CC(C)(C)OC(=O)N1CCN(c2cnn3cc(-c4ccccc4)ccc23)CC1 [Compound 206]

1: 2.75; 2: 3.32

Required: GPR17 Fold Induction (Over Vehicle; 3 μM), one value per molecule below.
1. CC(C)n1cc(-c2ccc3c(N4CCN(C(=O)OC(C)(C)C)CC4)cnn3c2)cn1 [Compound 234]
2. CC(C)C(O)c1cnc(N2CCN(c3cnn4cc(-c5cnn(C)c5)ccc34)CC2)nc1 (centres unmarked) [Compound 176]
3. C[C@@H](OC(=O)N1CCN(c2cnn3cc(-c4cnn(C)c4)ccc23)CC1)c1ccccc1F [Compound 81]

[7.16, 3.90, 6.74]

Required: GPR17 Fold Induction (Over Vehicle; 3 μM), one value per molecule below.
1. Cn1cc(-c2ccc3c(N4CCN(c5ncc(CN6CCc7ccccc76)cn5)CC4)cnn3c2)cn1 [Compound 174]
2. CC(C)(C)OC(=O)N1CCN(c2cnn3cc(-c4cccc(F)c4)ccc23)CC1 [Compound 208]

6.67
1.22

Provide measured GPR17 Fold Induction (Over Vehicle; 3 μM) value, entry: COc1ccc2c(N3CCN(c4ncc(Cc5ccccc5)cn4)CC3)cnn2c1 [Compound 259]
2.69

These data points were gathered from patent US20250129067A1.
